# test name: Tolerability in rats: liver enzyme panel 24 hours post dose
# Format: in vivo, rat
# condition parameters: Sprague Dawley female rats, 6 mg/kg, serum
Quick list: Total Bilirubin per entry.

- compound: "CCCCC/C=C\\C/C=C\\CCCCCCCC(=O)OCC(COC(=O)CCCCCCC/C=C\\C/C=C\\CCCCC)OC(=O)CCC(CCCCCC)OC(=O)NCCN1CCCC1 (racemic) [Compound 50]"
  Total Bilirubin (mg/dL): 0.4
- compound: "CCCCC/C=C\\C/C=C\\CCCCCCCC(=O)OCC(COC(=O)CCCCCCC/C=C\\C/C=C\\CCCCC)OC(=O)CCC(CCCCCCCC)OC(=O)NCCN(C)CC (stereo not shown) [Compound 34]"
  Total Bilirubin (mg/dL): 0.2
- compound: "CCCCC/C=C\\C/C=C\\CCCCCCCC(=O)OCC(COC(=O)CCCCCCC/C=C\\C/C=C\\CCCCC)OC(=O)CCC(CCCCCC)OC(=O)OCCCN1CCCC1 (stereo not shown) [Compound 45]"
  Total Bilirubin (mg/dL): 0.3
- compound: "CCCCC/C=C\\C/C=C\\CCCCCCCC(=O)OCC(COC(=O)CCC(OCCCCCCCC)OCCCCCCCC)COC(=O)OCCCN(CC)CC (stereo not shown) [Compound 49, reference compound]"
  Total Bilirubin (mg/dL): 0.6
